Source of measurements: patent US20040024024A1

Molecular target: Human recombinant MMP-9 (Homo sapiens)
Construct: made in house; host or cells: MMP-9-transfected HT1080 cells (spent media)
Experiment: In vitro MMP inhibition, IC50 determination (fluorogenic substrate I)
Assay type: biochemical
Details: value outside parentheses
pIC50: −log10 of the molar value.
experimentalEndpoint: pIC50

O=C(NO)C1(S(=O)(=O)c2ccc(OCCOCc3cccnc3)cc2)CCOCC1 [Example 518] | 6.94
O=C(NO)C1(S(=O)(=O)c2ccc(OCCCn3nnc(-c4ccc(C(F)(F)F)cc4)n3)cc2)CCN(CC(F)(F)F)CC1 | 6.42
CN(C(=O)CCCOc1ccc(S(=O)(=O)C2(C(=O)NO)CCOCC2)cc1)c1ccccc1 | 6.01
O=C(NO)C1(S(=O)(=O)c2ccc(OCCOc3ccc4c(c3)OCO4)cc2)CCOCC1 | 7.35
O=C(NO)C1(S(=O)(=O)c2ccc(OCCCc3cc(-c4ccc(F)cc4)cs3)cc2)CCOCC1 | 5.64

I: O=C(NO)C1(S(=O)(=O)c2ccc(OCC3Cc4cc(Oc5ccccc5)ccc4O3)cc2)CCOCC1 (stereo not drawn)
II: O=C(CCCOc1ccc(S(=O)(=O)C2(C(=O)NO)CCOCC2)cc1)c1ccccc1
III: NCc1ccc(OCCOc2ccc(S(=O)(=O)C3(C(=O)NO)CCOCC3)cc2)cc1
Inquiry: Sort the molecules on pIC50; start with the lowest figure. Returns: the labels listed in the requested order.
Reply text: I, II, III

###

Listing of entries alongside the reported IC50.
Target: Human recombinant MMP-1 (Homo sapiens, UniProt P03956)
Construct: made in house; host or cells: MMP-1-transfected HT-1080 cells (spent media)
Sequence (P03956 100-469): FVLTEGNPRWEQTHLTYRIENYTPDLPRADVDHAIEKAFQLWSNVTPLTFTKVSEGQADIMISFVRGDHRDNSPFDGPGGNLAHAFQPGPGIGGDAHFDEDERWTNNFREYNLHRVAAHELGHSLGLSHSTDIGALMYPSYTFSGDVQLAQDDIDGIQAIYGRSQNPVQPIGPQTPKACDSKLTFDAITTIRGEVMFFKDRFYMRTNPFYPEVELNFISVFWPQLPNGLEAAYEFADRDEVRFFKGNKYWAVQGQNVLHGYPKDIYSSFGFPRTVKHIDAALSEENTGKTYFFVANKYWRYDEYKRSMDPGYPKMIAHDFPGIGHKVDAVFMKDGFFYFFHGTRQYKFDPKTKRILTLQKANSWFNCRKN
Test: In vitro MMP inhibition, IC50 determination (fluorogenic substrate I)
Format: biochemical
Settings: value outside parentheses

// worked examples, IC50 included
O=C(NCCOc1ccc(S(=O)(=O)C2(C(=O)NO)CCOCC2)cc1)c1cc2ccccc2[nH]1 | > 10 µM
O=C(NO)C1(S(=O)(=O)c2ccc(OCCCc3cc(-c4ccc(F)cc4F)cs3)cc2)CCOCC1 | > 10 µM
O=C(NO)C1(S(=O)(=O)c2ccc(OCCOCc3ccccc3)cc2)CCOCC1 | 3.92 µM

Inquiry: # query: IC50 of entry O=C(NO)C1(S(=O)(=O)c2ccc(OCCCc3cccc(-c4ccc([N+](=O)[O-])cc4)c3)cc2)CCOCC1
Reply text: > 10 µM

Inquiry: Also N#Cc1ccc(-c2cccc(CCCOc3ccc(S(=O)(=O)C4(C(=O)NO)CCOCC4)cc3)c2)cc1 ?
Reply text: > 10 µM

Inquiry: Also O=C(NO)C1(S(=O)(=O)c2ccc(OCCOCc3ccccn3)cc2)CCOCC1 ?
Reply text: > 10 µM

Inquiry: Also CCN1CCC(C(=O)NO)(S(=O)(=O)c2ccc(OCCCSc3nc4ccccc4s3)cc2)CC1 ?
Reply text: > 10 µM

Inquiry: Also O=C(NO)C1(S(=O)(=O)c2ccc(OCC3Cc4cc(Oc5ccccc5)ccc4O3)cc2)CCOCC1 (centres unmarked) ?
Reply text: > 10 µM

Inquiry: Also O=C(NO)C1(S(=O)(=O)c2ccc(OCCOCc3cccc([N+](=O)[O-])c3)cc2)CCOCC1 ?
Reply text: 2.31 µM

Inquiry: Also O=C(Cc1ccsc1)NCCOc1ccc(S(=O)(=O)C2(C(=O)NO)CCOCC2)cc1 ?
Reply text: 4.92 µM

Inquiry: Also O=C(NO)C1(S(=O)(=O)c2ccc(OCCCc3cc(-c4ccc(F)cc4)cs3)cc2)CCOCC1 ?
Reply text: > 10 µM

###

Biological target: Human recombinant MMP-1 (Homo sapiens, UniProt P03956)
Construct: made in house; host or cells: MMP-1-transfected HT-1080 cells (spent media)
Assay: In vitro MMP inhibition, IC50 determination (fluorogenic substrate I)
Type: biochemical
Conditions: value outside parentheses (Ki in parenthesis)
Listing of entries alongside the reported IC50.

O=C(NO)C1(S(=O)(=O)c2ccc(OCCCNc3nc4ccccc4o3)cc2)CCOCC1 | > 10 µM

Inquiry: # query: IC50 of entry O=C(CCCOc1ccc(S(=O)(=O)C2(C(=O)NO)CCOCC2)cc1)c1cccs1
Reply text: 6.81 µM

Inquiry: Also O=C(CCCCOc1ccc(S(=O)(=O)C2(C(=O)NO)CCOCC2)cc1)c1ccccc1 ?
Reply text: > 10 µM

###

Target: Human recombinant MMP-2 (Homo sapiens, UniProt P08253)
Construct: made in house; host or cells: MMP-2-transfected p2AHT2 cells
Sequence (P08253 110-660): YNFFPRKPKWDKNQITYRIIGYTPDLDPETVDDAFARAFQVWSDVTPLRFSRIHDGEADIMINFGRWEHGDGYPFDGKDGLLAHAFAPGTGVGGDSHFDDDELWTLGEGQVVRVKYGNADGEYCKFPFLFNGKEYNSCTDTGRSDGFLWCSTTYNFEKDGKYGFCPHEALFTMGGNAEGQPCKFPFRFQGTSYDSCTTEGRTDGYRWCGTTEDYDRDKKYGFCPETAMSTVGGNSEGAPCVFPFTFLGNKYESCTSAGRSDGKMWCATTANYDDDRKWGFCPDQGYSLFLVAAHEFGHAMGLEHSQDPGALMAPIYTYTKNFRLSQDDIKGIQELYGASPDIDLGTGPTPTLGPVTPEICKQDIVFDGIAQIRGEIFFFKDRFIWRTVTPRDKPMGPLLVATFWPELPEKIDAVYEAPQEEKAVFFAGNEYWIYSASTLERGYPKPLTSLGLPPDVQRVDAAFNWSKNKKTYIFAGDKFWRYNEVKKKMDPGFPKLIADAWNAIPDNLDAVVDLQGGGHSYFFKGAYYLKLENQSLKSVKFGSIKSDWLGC
Experiment: In vitro MMP inhibition, Ki determination (fluorogenic substrate II)
Assay type: biochemical
Conditions: value in parenthesis
pKi: −log10 of the molar value.
experimentalEndpoint: pKi

// worked examples, pKi included
O=C(NO)C1(S(=O)(=O)c2ccc(OCCc3cccc(-c4ccccc4F)c3)cc2)CCOCC1 [Example 115] | 6.09
O=C(CCCc1ccc(S(=O)(=O)C2(C(=O)NO)CCOCC2)cc1)c1cccc(-c2ccccc2)c1 [Example 219] | 6.98
O=C(NO)C1(S(=O)(=O)c2ccc(OCCc3cccc(-c4cc(F)cc(F)c4)c3)cc2)CCOCC1 [Example 110] | 6.95
O=C(NO)C1(S(=O)(=O)c2ccc(OCCCc3cccc(-c4ccc(F)cc4)c3)cc2)CCN(C2CC2)CC1 [Example 139] | 5.85
Cc1cc(NC(=O)CCCOc2ccc(S(=O)(=O)C3(C(=O)NO)CCOCC3)cc2)ccc1OC(C)C [Example 290] | 6.00

a: O=C(NO)C1(S(=O)(=O)c2ccc(OCCCc3cccc(-c4ccc(Cl)cc4Cl)c3)cc2)CCOCC1 [Example 171]
b: O=C(NO)C1(S(=O)(=O)c2ccc(OCCCc3cccc(-c4cccnc4)c3)cc2)CCOCC1 [Example 150]
Inquiry: Would you mind telling me which has the lower recorded pKi between a and b ? Identify your pick by its label.
Reply text: a

###

Molecular target: Human recombinant MMP-9 (Homo sapiens, UniProt P14780)
Construct: made in house; host or cells: MMP-9-transfected HT1080 cells (spent media)
Sequence (P14780 107-707 limits assumed): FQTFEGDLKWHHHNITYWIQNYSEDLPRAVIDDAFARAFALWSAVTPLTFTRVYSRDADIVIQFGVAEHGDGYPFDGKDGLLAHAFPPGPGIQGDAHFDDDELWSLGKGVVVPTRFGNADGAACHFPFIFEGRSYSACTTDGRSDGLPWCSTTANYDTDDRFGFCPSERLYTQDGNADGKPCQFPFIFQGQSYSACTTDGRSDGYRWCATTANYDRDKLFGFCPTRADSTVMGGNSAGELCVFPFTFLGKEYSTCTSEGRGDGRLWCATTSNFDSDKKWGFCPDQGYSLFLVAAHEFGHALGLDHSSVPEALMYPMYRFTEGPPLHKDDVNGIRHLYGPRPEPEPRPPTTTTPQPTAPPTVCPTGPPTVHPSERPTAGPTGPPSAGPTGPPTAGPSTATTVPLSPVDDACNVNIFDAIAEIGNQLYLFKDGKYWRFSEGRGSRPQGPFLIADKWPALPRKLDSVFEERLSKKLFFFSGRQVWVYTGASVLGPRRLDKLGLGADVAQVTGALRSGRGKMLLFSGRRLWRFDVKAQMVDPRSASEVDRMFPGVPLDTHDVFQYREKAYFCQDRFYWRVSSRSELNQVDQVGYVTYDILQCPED
Assay: In vitro MMP inhibition, IC50 determination (fluorogenic substrate I)
Type: biochemical
Settings: value outside parenthesis
experimentalEndpoint: IC50 (nM)

COc1ccc(/C(C#N)=C/CCCOc2ccc(S(=O)(=O)C3(C(=O)NO)CCN(C4CC4)CC3)cc2)cc1 | 832

I: Cc1cc(C)nc(SCCCOc2ccc(S(=O)(=O)C3(C(=O)NO)CCOCC3)cc2)n1
II: O=C(NO)C1(S(=O)(=O)c2ccc(OCCCc3ccnc(-c4ccccc4)c3)cc2)CCOCC1
Inquiry: Return label of the item with the larger IC50. Candidates: I , II . Identify your pick by its label.
Reply text: I

A: COc1ccc(-c2nnn(CCCOc3ccc(S(=O)(=O)C4(C(=O)NO)CCOCC4)cc3)n2)cc1
B: COc1cc(OC)cc(-c2noc(CCCOc3ccc(S(=O)(=O)C4(C(=O)NO)CCOCC4)cc3)n2)c1
Inquiry: Return label of the item with the larger IC50. Candidates: A , B . Identify your pick by its label.
Reply text: B
(B: 5180 nM, A: 1050 nM)

1: COc1ccc(C(=O)CCCc2ccc(S(=O)(=O)C3(C(=O)NO)CCOCC3)cc2)cc1
2: Cc1ccc(-c2noc(CCCOc3ccc(S(=O)(=O)C4(C(=O)NO)CCOCC4)cc3)n2)c(F)c1
Inquiry: Would you mind telling me which has the lower recorded IC50 between 1 and 2 ? Identify your pick by its label.
Reply text: 1
(1: 10.2 nM, 2: 2970 nM)

P: O=C(NO)C1(S(=O)(=O)c2ccc(OCCCc3nc(-c4cccc([N+](=O)[O-])c4)no3)cc2)CCOCC1
Q: O=C(NO)C1(S(=O)(=O)c2ccc(OCCCc3nc(-c4cc(F)ccc4F)no3)cc2)CCOCC1
R: CC(C)(C)c1ccc(-c2nnc(CCCOc3ccc(S(=O)(=O)C4(C(=O)NO)CCOCC4)cc3)o2)cc1
S: Cc1ccc(-c2nnc(CCCOc3ccc(S(=O)(=O)C4(C(=O)NO)CCOCC4)cc3)o2)cc1
Inquiry: Sort the molecules on IC50; start with the lowest figure. Returns: the labels listed in the requested order.
Reply text: P, R, Q, S
(P: 285 nM, R: 494 nM, Q: 864 nM, S: 1880 nM)

###

Molecular target: Human recombinant MMP-14 (Homo sapiens, UniProt P50281)
Construct: The catalytic domain enzyme was expressed in E. coli inclusion bodies, solubilized in urea; made in house
Experiment: In vitro MMP inhibition, IC50 determination (fluorogenic substrate I)
Assay type: biochemical
Details: value outside parenthesis
Description: Several hydroxamates and salts thereof were analyzed in in vitro assays to determine their ability to inhibit the MMP cleavage of peptide substrates. Inhibition (Ki) and IC50 constants were calculated from the assayed hydroxamate-MMP interactions. […] The assays from which the IC50 determinations were made were performed as follows. […] The assayed hydroxamate samples were, incubated in Microfluorrm White Plates (Dynatech, Chantilly, VA) and analyzed on a Perkin Elmer L550 plate reader (Norwalk, Conn.). […]
experimentalEndpoint: IC50

O=C(NO)C1(S(=O)(=O)c2ccc(OCCCc3nnc(-c4ccccc4Cl)o3)cc2)CCOCC1 | > 10 µM
COC(=O)CCCOc1ccc(S(=O)(=O)C2(C(=O)NO)CCOCC2)cc1 | > 10 µM

Inquiry: # query: IC50 of entry O=C(NO)C1(S(=O)(=O)c2ccc(OCCc3cccc(-c4ccccc4F)c3)cc2)CCOCC1
Reply text: > 10 µM

Inquiry: Also COc1ccc(-c2noc(CCCOc3ccc(S(=O)(=O)C4(C(=O)NO)CCOCC4)cc3)n2)cc1 ?
Reply text: > 10 µM

Inquiry: Also CC(C)(C)c1ccc(-c2nnc(CCCOc3ccc(S(=O)(=O)C4(C(=O)NO)CCOCC4)cc3)o2)cc1 ?
Reply text: > 10 µM
